test system: SNB-19; assay: NCI tumour cell line growth inhibition, 48 h
The source made the active and inactive calls. Rule as the data show it: active = GI50 up to about 1.1 µM and inactive = higher.
The reply should name one outcome from active, inactive

COMPOUND: CCN(CC)CCCNc1nc(=O)[nH]c(C)c1C(=O)Nc1ccc2c(c1)c1ccccc1n2CC
CLASS: inactive

Task item: # outcome recorded in this test, key = `COc1ccc(C(=O)Sc2c(-c3ccccc3)c(=O)n(-c3ccccc3)c(=S)n2-c2ccccc2)cc1`
Reply: inactive

Task item: And what about the compound O=C(OCC1OC(n2nc(Cn3nnc(-c4cccnc4)n3)n(-c3cccc4ccccc34)c2=S)C(OC(=O)c2ccccc2)C1OC(=O)c1ccccc1)c1ccccc1 (stereo unspecified) ?
Reply: inactive

Task item: And what about the compound COC1(CC[C@H](C)COC2OC(CO)C(O)C(O)C2O)O[C@H]2C[C@H]3[C@@H]4CC=C5C[C@@H](OC6OC(CO)C(O)C(OC7OC(CO)C(O)C(O)C7O)C6OC6OC(C)C(O)C(O)C6O)CC[C@]5(C)[C@H]4CC[C@]3(C)[C@H]2[C@@H]1C (stereo partly specified) ?
Reply: inactive

Task item: And what about the compound `CC(=O)/C(=C/NC(=S)c1ccncc1)C(=O)Nc1ccccc1C` ?
Reply: inactive

Task item: And what about the compound CSCCC(NC(=O)OC(C)(C)C)C(=O)NCCNc1ccc(NCCNC(=O)C(CCSC)NC(=O)OC(C)(C)C)c2c1C(=O)c1ccccc1C2=O (stereo unspecified) ?
Reply: inactive

Task item: And what about the compound CCOP(=O)(OCC)OC1CC(n2cc(C)c(=O)n(C)c2=O)OC1CO[Si](C)(C)C(C)(C)C (stereo unspecified) ?
Reply: inactive

Task item: And what about the compound CN1CCOC1(C)c1ccccc1 (stereo unspecified) ?
Reply: inactive

Task item: And what about the compound CC[N+]1(C)CCC(O)(/C=C/c2ccc(Cl)c(Cl)c2)C(C(=O)/C=C/c2ccc(Cl)c(Cl)c2)C1 (stereo unspecified) ?
Reply: inactive

Task item: And what about the compound `Cn1cnc(N)c(N=O)c1=O` ?
Reply: inactive

Task item: And what about the compound `Cn1c2ccccc2n2c3ccccc3c3nnc(N)c-3c12` ?
Reply: inactive

Task item: And what about the compound CCC(C)C(=O)O[C@H]1C(=O)O[C@@H]2C[C@H]3C(C)=CC(=O)[C@@H](O)[C@]3(C)[C@H]3[C@@H](O)[C@H](O)[C@@]4(C)OC[C@]32[C@@H]14 (stereo partly specified) ?
Reply: active

Task item: And what about the compound `Cn1nc(-c2cccc(-c3nn(C)/c(=N\CCO)s3)n2)s/c1=N/CCO` ?
Reply: inactive

Task item: And what about the compound `O=C(CCn1[nH]c(=O)c(Cl)c(Cl)c1=O)NO` ?
Reply: inactive

Task item: And what about the compound `CC=C/C=C/[C@@H]1O[C@](O)([C@H](CC)C(=O)NC/C=C/C=C(\C)[C@@H](OC)[C@@H](C)[C@@H]2O[C@H](/C=C/C=C/C=C(\C)C(=O)c3c(O)cc[nH]c3=O)[C@H](O)[C@@H]2O)[C@H](O)[C@H](O)C1(C)C` ?
Reply: inactive

Task item: And what about the compound `S=C(NCCc1ccccn1)c1nc[nH]c1C(=S)NCCc1ccccn1` ?
Reply: inactive

---

Entries annotated with measured GI50
tested on: NCI-H23; assay: NCI tumour cell line growth inhibition, 48 h
Calls of active or inactive are those of the source. Cut-off read from the data, not from the text of the source: active = GI50 up to about 1.1 µM and inactive = higher.

Past entries and their recorded results:
COMPOUND: C/C=C(/COC(C)=O)C(=O)OC1C=C(C=O)C(C)(C)C=C1C (stereo not drawn)
GI50: > 100 µM (inactive)

COMPOUND: CN1CCOC1(C)c1ccccc1 (stereo not drawn)
GI50: > 100 µM (inactive)

COMPOUND: CC#C[C@]1(O)CCC2[C@@H]3CCC4=CC(=O)CCC4=C3[C@@H](c3ccc(N(C)C)cc3)C[C@@]21C (stereo partly drawn)
GI50: 21.4 µM (inactive)

COMPOUND: Cc1ccc(C(=O)/C=C2\Nc3ccccc3NC2=O)cc1
GI50: 8.05 µM (inactive)

COMPOUND: COC(=O)C(Cc1ccccc1)/N=C/c1c(O)c(O)c(C(C)C)c2cc(C)c(-c3c(C)cc4c(C(C)C)c(O)c(O)c(/C=N/C(Cc5ccccc5)C(=O)OC)c4c3O)c(O)c12 (stereo not drawn)
GI50: 26.4 µM (inactive)

Task item: What measured GI50 goes with `C=CCc1cccc2cc(C(=O)Nc3ccc(C)cc3)c(=N)oc12` ?
Reply: > 100 µM (inactive)

Task item: And what about the compound `S=C(NCCc1ccccn1)c1nc[nH]c1C(=S)NCCc1ccccn1` ?
Reply: 39.4 µM (inactive)

Task item: And what about the compound COC(=O)C(=O)C(C(=O)OC)C(=O)C(=O)Nc1c(C)cccc1C (stereo not drawn) ?
Reply: > 100 µM (inactive)

Task item: And what about the compound `CCc1cc(CCC(=O)Nc2ccccc2[N+](=O)[O-])nc(S)n1` ?
Reply: > 100 µM (inactive)

Task item: And what about the compound `O=C1c2ccccc2/N=C(/c2cc3c(cc2Cl)Sc2nccn2S3(=O)=O)OS(=O)(=O)N1c1ccccc1` ?
Reply: 22.4 µM (inactive)

Task item: And what about the compound `COc1cccc(SSc2cccc(OC)c2C(=O)O)c1C(=O)O` ?
Reply: > 100 µM (inactive)

---

system: CAKI-1; assay: NCI tumour cell line growth inhibition, 48 h
Activity calls are given as the source filed them. Rule as the data show it: active = GI50 up to about 1.1 µM and inactive = higher.
The reply should name one outcome from active, inactive

COMPOUND: CC(C)(C)c1cc(C(O)(C(=O)O)C(=O)O)cc(C(C)(C)C)c1O
CLASS: inactive
--
COMPOUND: CCCCCCCCCCC(O)C1CCC(C(O)CCC(O)C2CCC(CCCCCCC[C@H](O)CC3=C[C@@H](C)OC3=O)O2)O1 (stereo partly drawn)
CLASS: inactive
--
COMPOUND: CC(=O)NNc1nc(C)c(C(=O)NNC(=O)C(=O)Nc2c([N+](=O)[O-])ccc(C)c2C)s1
CLASS: inactive

Task item: # outcome recorded in this test, key = CCCCCCCCCCCCCCCCCC(=O)OCC(C[As](=O)(O)O)OC(=O)CCCCCCCCCCCCCCCCC (stereo not drawn)
Reply: inactive

Task item: And what about the compound CC1O[C@@H]2CCCCC(=O)[C@]2(C)[C@H]1C (stereo partly drawn) ?
Reply: inactive

Task item: And what about the compound O=C(O)c1cccc(/[As]=[As]\c2cccc(C(=O)O)c2)c1 (stereo not drawn) ?
Reply: inactive

Task item: And what about the compound `O/N=C1\CCc2cc3c(cc21)CCC3` ?
Reply: inactive

Task item: And what about the compound COC(=O)C(=O)C(C(=O)OC)C(=O)C(=O)Nc1c(C)cccc1C (stereo not drawn) ?
Reply: inactive

Task item: And what about the compound `CCOC(=O)CCC1(CCC(=O)OCC)CCCCCCCCC(CCC(=O)OCC)(CCC(=O)OCC)C(=O)C1=O` ?
Reply: inactive

Task item: And what about the compound Cc1c(C2CCSc3ccccc3N2)sc2ccccc12 (stereo not drawn) ?
Reply: inactive

Task item: And what about the compound COC(=O)C(Cc1ccc(N(C)C)cc1)(NC(=O)c1ccccc1)P(=O)(OC)OC (stereo not drawn) ?
Reply: inactive

---

Entries annotated with measured GI50
system: EKVX; experiment: NCI tumour cell line growth inhibition, 48 h
Active and inactive are the calls of the source. No stated cut-off is given here; in the data, active = GI50 up to about 1.1 µM and inactive = higher.

MOLECULE: CN(C)CCC1(C2=CCCC2)CC/C(=C\c2ccc(Cl)cc2)C1=O (stereo unspecified)
TEST TARGET: EKVX
GI50: 7.16 µM (inactive)

Task item: What measured GI50 goes with `COc1ccccc1/C=N/N=C(\N)NO` ?
Reply: 18.9 µM (inactive)

Task item: And what about the molecule CC12CCC(=O)[C@@]1(C)CCCC2O (stereo partly specified) ?
Reply: > 100 µM (inactive)

Task item: And what about the molecule `O=C(Nc1ccccc1C(=O)NCc1ccccc1)/C(=C/c1ccccc1O)NC(=O)c1ccccc1` ?
Reply: > 100 µM (inactive)

Task item: And what about the molecule `CC(C)(C)c1cc(C(O)(C(=O)O)C(=O)O)cc(C(C)(C)C)c1O` ?
Reply: > 100 µM (inactive)

Task item: And what about the molecule `C[Si](C)(C)/C(I)=C/CO` ?
Reply: 29.9 µM (inactive)

Task item: And what about the molecule CN1CCOC1(C)c1ccccc1 (stereo unspecified) ?
Reply: > 100 µM (inactive)

Task item: And what about the molecule CC1NC(/C(=C/c2ccccc2O)NC(=O)c2ccccc2)OC1=O (stereo unspecified) ?
Reply: 30.4 µM (inactive)

Task item: And what about the molecule `Cc1ccc2c3c1[C@@H]1O[C@@H]1c1cccc(c1-3)[C@@H]1O[C@H]21` ?
Reply: 16.1 µM (inactive)

Task item: And what about the molecule `Cc1ccc(C(=O)/C=C2\Nc3ccccc3NC2=O)cc1` ?
Reply: 2.96 µM (inactive)

Task item: And what about the molecule `Cn1c(N)nc(-c2ccc(Cl)cc2)c1SSc1c(-c2ccc(Cl)cc2)nc(N)n1C` ?
Reply: 2.73 µM (inactive)
